The entries below come with measured MIC Proteus vulgaris X 19H ATCC 881 values attached.
- System: Proteus vulgaris X 19H ATCC 881
- Test Details: In vitro antibacterial activity, standard agar-dilution test (MIC)
- Assay type: cell-based
- Protocol Conditions: inoculum about 10^4 CFU/ml, 18-24 h at 37° C.
// units = µg/mL; emit number, no label

IN: Would you mind telling me what MIC Proteus vulgaris X 19H ATCC 881 value was observed for CN(C)CCCCCCCNC(=O)C1NC(=O)C2NC(=O)C(NC(=O)C3NC(=O)C4NC(=O)C(Cc5ccc(c(Cl)c5)Oc5cc3cc(c5O)Oc3ccc(cc3Cl)C2O)NC(=O)C(N)c2ccc(O)c(c2)Oc2cc(O)cc4c2)c2ccc(O)c(c2)-c2c(O)cc(O)cc21 (stereo not shown) ?
OUT: 128

IN: Would you mind telling me what MIC Proteus vulgaris X 19H ATCC 881 value was observed for CCCCN(CCCC)CCCNC(=O)C1NC(=O)C2NC(=O)C(NC(=O)C3NC(=O)C4NC(=O)C(Cc5ccc(c(Cl)c5)Oc5cc3cc(c5O)Oc3ccc(cc3Cl)C2O)NC(=O)C(N)c2ccc(O)c(c2)Oc2cc(O)cc4c2)c2ccc(O)c(c2)-c2c(O)cc(O)cc21 (stereo not shown) ?
OUT: 32

IN: Would you mind telling me what MIC Proteus vulgaris X 19H ATCC 881 value was observed for Cl.Cl.NC1C(=O)NC2Cc3ccc(c(Cl)c3)Oc3cc4cc(c3O)Oc3ccc(cc3Cl)C(O)C3NC(=O)C(NC(=O)C4NC(=O)C(NC2=O)c2cc(O)cc(c2)Oc2cc1ccc2O)c1ccc(O)c(c1)-c1c(O)cc(O)cc1C(C(=O)NCCCN1CCOCC1)NC3=O (stereo not shown) ?
OUT: 64

---

- Test Details: Acid-base titration (pK)
- Format: physicochemical
- Protocol Conditions: acid-base titration in METHYLCELLOSOLVE/H2O 4:1 (v/v), 0.01N KOH; salt form per Table IV
Endpoint Name: pK2
Please state the value as a number alone, without comment.

Some solved cases for reference:
1. NC1C(=O)NC2Cc3ccc(c(Cl)c3)Oc3cc4cc(c3O)Oc3ccc(cc3Cl)C(O)C3NC(=O)C(NC(=O)C4NC(=O)C(NC2=O)c2cc(O)cc(c2)Oc2cc1ccc2O)c1ccc(O)c(c1)-c1c(O)cc(O)cc1C(C(=O)NCCN1CCCC1)NC3=O (stereo not shown) [Compound 22]; 7.8
2. CCN(CC)CCCNC(=O)C1NC(=O)C2NC(=O)C(NC(=O)C3NC(=O)C4NC(=O)C(Cc5ccc(c(Cl)c5)Oc5cc3cc(c5O)Oc3ccc(cc3Cl)C2O)NC(=O)C(N)c2ccc(O)c(c2)Oc2cc(O)cc4c2)c2ccc(O)c(c2)-c2c(O)cc(O)cc21 (stereo not shown) [Compound 19]; 8.0

IN: Would you mind telling me what pK2 value was observed for COC(=O)C(CCCCN)NC(=O)C1NC(=O)C2NC(=O)C(NC(=O)C3NC(=O)C4NC(=O)C(Cc5ccc(c(Cl)c5)Oc5cc3cc(c5O)Oc3ccc(cc3Cl)C2O)NC(=O)C(N)c2ccc(O)c(c2)Oc2cc(O)cc4c2)c2ccc(O)c(c2)-c2c(O)cc(O)cc21.Cl.Cl (stereo not shown) [Compound 73] ?
OUT: 6.5

IN: Would you mind telling me what pK2 value was observed for NC1C(=O)NC2Cc3ccc(c(Cl)c3)Oc3cc4cc(c3O)Oc3ccc(cc3Cl)C(O)C3NC(=O)C(NC(=O)C4NC(=O)C(NC2=O)c2cc(O)cc(c2)Oc2cc1ccc2O)c1ccc(O)c(c1)-c1c(O)cc(O)cc1C(C(=O)NCCN1CCOCC1)NC3=O (stereo not shown) [Compound 21] ?
OUT: 6.8

---

- Test Details: Acid-base titration (pK)
- Format: physicochemical
- Protocol Conditions: acid-base titration in METHYLCELLOSOLVE/H2O 4:1 (v/v), 0.01N KOH; salt form per Table IV
Endpoint Name: pK2
Please state the value as a number alone, without comment.

1) CCCCN(CCCC)CCCNC(=O)C1NC(=O)C2NC(=O)C(NC(=O)C3NC(=O)C4NC(=O)C(Cc5ccc(c(Cl)c5)Oc5cc3cc(c5O)Oc3ccc(cc3Cl)C2O)NC(=O)C(N)c2ccc(O)c(c2)Oc2cc(O)cc4c2)c2ccc(O)c(c2)-c2c(O)cc(O)cc21 (stereo not shown) [Compound 20]; 8.3
2) CC(=O)NC1C(OC2c3ccc(c(Cl)c3)Oc3cc4cc(c3O)Oc3ccc(cc3Cl)CC3NC(=O)C(N)c5ccc(O)c(c5)Oc5cc(O)cc(c5)C(NC3=O)C(=O)NC4C(=O)NC3C(=O)NC2C(=O)NC(C(=O)NCCN2CCOCC2)c2cc(O)cc(O)c2-c2cc3ccc2O)OC(CO)C(O)C1O (stereo not shown) [Compound 14]; 6.8

IN: Would you mind telling me what pK2 value was observed for CN1CCN(C(=O)C2NC(=O)C3NC(=O)C(NC(=O)C4NC(=O)C5NC(=O)C(Cc6ccc(c(Cl)c6)Oc6cc4cc(c6O)Oc4ccc(cc4Cl)C3O)NC(=O)C(N)c3ccc(O)c(c3)Oc3cc(O)cc5c3)c3ccc(O)c(c3)-c3c(O)cc(O)cc32)CC1 (stereo not shown) [Compound 23] ?
OUT: 6.8

IN: Would you mind telling me what pK2 value was observed for NC1C(=O)NC2Cc3ccc(c(Cl)c3)Oc3cc4cc(c3O)Oc3ccc(cc3Cl)C(O)C3NC(=O)C(NC(=O)C4NC(=O)C(NC2=O)c2cc(O)cc(c2)Oc2cc1ccc2O)c1ccc(O)c(c1)-c1c(O)cc(O)cc1C(C(=O)N1CCN(c2ccccn2)CC1)NC3=O (stereo not shown) [Compound 24] ?
OUT: 7.4

---

- Test Details: Isoelectric point (pI) by isoelectrofocusing with bioautography detection
- Assay type: physicochemical
- Protocol Conditions: IEF technique, polyacrylamide gel
Endpoint Name: Isoelectric point (pI)
Please state the value as a number alone, without comment.

1) Cl.Cl.NC1C(=O)NC2Cc3ccc(c(Cl)c3)Oc3cc4cc(c3O)Oc3ccc(cc3Cl)C(O)C3NC(=O)C(NC(=O)C4NC(=O)C(NC2=O)c2cc(O)cc(c2)Oc2cc1ccc2O)c1ccc(O)c(c1)-c1c(O)cc(O)cc1C(C(=O)NC1CN2CCC1CC2)NC3=O (stereo not shown) [Compound 83]; 8.9

IN: Would you mind telling me what Isoelectric point (pI) value was observed for CCN(CC)CCCNC(=O)C1NC(=O)C2NC(=O)C(NC(=O)C3NC(=O)C4NC(=O)C(Cc5ccc(c(Cl)c5)Oc5cc3cc(c5O)Oc3ccc(cc3Cl)C2O)NC(=O)C(N)c2ccc(O)c(c2)Oc2cc(O)cc4c2)c2ccc(O)c(c2)-c2c(O)cc(O)cc21 (stereo not shown) [Compound 19] ?
OUT: 8.7

IN: Would you mind telling me what Isoelectric point (pI) value was observed for CCCCCN(CCCCC)CCCNC(=O)C1NC(=O)C2NC(=O)C(NC(=O)C3NC(=O)C4NC(=O)C(Cc5ccc(c(Cl)c5)Oc5cc3cc(c5O)Oc3ccc(cc3Cl)C2OC2OC(CO)C(O)C(O)C2NC(C)=O)NC(=O)C(N)c2ccc(O)c(c2)Oc2cc(O)cc4c2)c2ccc(O)c(c2)-c2c(OC3OC(CO)C(O)C(O)C3O)cc(O)cc21 (stereo not shown) [Compound 43] ?
OUT: 8.7

IN: Would you mind telling me what Isoelectric point (pI) value was observed for CCCCN(CCCC)CCCNC(=O)C1NC(=O)C2NC(=O)C(NC(=O)C3NC(=O)C4NC(=O)C(Cc5ccc(c(Cl)c5)Oc5cc3cc(c5O)Oc3ccc(cc3Cl)C2O)NC(=O)C(N)c2ccc(O)c(c2)Oc2cc(O)cc4c2)c2ccc(O)c(c2)-c2c(O)cc(O)cc21 (stereo not shown) [Compound 20] ?
OUT: 8.7

---

- Tested on: Proteus vulgaris X 19H ATCC 881
- Test Details: In vitro antibacterial activity, standard agar-dilution test (MIC)
- Type: cell-based
- Protocol Conditions: inoculum about 10^4 CFU/ml, 18-24 h at 37° C.
Endpoint Name: MIC Proteus vulgaris X 19H ATCC 881

Some solved cases for reference:
1. CN(C)CCNC(=O)C1NC(=O)C2NC(=O)C(NC(=O)C3NC(=O)C4NC(=O)C(Cc5ccc(c(Cl)c5)Oc5cc3cc(c5O)Oc3ccc(cc3Cl)C2O)NC(=O)C(N)c2ccc(O)c(c2)Oc2cc(O)cc4c2)c2ccc(O)c(c2)-c2c(O)cc(O)cc21.Cl.Cl (stereo not shown); 32 µg/mL
2. CN(C)CCCNC(=O)C1NC(=O)C2NC(=O)C(NC(=O)C3NC(=O)C4NC(=O)C(Cc5ccc(c(Cl)c5)Oc5cc3cc(c5O)Oc3ccc(cc3Cl)C2O)NC(=O)C(N)c2ccc(O)c(c2)Oc2cc(O)cc4c2)c2ccc(O)c(c2)-c2c(O)cc(O)cc21 (stereo not shown); 16 µg/mL
3. NC1C(=O)NC2Cc3ccc(c(Cl)c3)Oc3cc4cc(c3O)Oc3ccc(cc3Cl)C(O)C3NC(=O)C(NC(=O)C4NC(=O)C(NC2=O)c2cc(O)cc(c2)Oc2cc1ccc2O)c1ccc(O)c(c1)-c1c(O)cc(O)cc1C(C(=O)NCCCCCC(=O)NC1C(O)OC(CO)C(O)C1O)NC3=O (stereo not shown); > 128 µg/mL

Please examine the following record next.
IN: Find MIC Proteus vulgaris X 19H ATCC 881 (Proteus vulgaris X 19H ATCC 881) for the entry CCOC(=O)CNC(=O)C1NC(=O)C2NC(=O)C(NC(=O)C3NC(=O)C4NC(=O)C(Cc5ccc(c(Cl)c5)Oc5cc3cc(c5O)Oc3ccc(cc3Cl)C2OC2OC(CO)C(O)C(O)C2NC(C)=O)NC(=O)C(N)c2ccc(O)c(c2)Oc2cc(O)cc4c2)c2ccc(O)c(c2)-c2c(O)cc(O)cc21 (stereo not shown)
OUT: > 128 µg/mL
